Origin of measurements: the supplement of paper PMC9732359

assay_method_text: protein stability index of a GFP-peptide fusion (yeast GPS) (PSI 1-4); higher = more stable; sorted into four equal gates, so the index is relative within each strain
assay_conditions: san1∆
attribute_measured: protein stability index
Lab note: record just the number, no unit beside it.

Data point: SKDVQQIDYKLESFQAV [RPS7A] ; protein stability index = 3.08

Data point: IPYSRNAPAWFKLSSES [RPS13] ; protein stability index = 2.12

Data point: GSIPSLTTQFVTDKYTA [YDL088C/ASM4] ; protein stability index = 2.46

Data point: SSFGSESLTFNEFQLQW [SWI1] ; protein stability index = 2.56

Data point: SNIIHDESDTISFRSNL [SNF6] ; protein stability index = 2.85

Data point: QQLLKGLSLSFSKKLDL [DSN1] ; protein stability index = 2.74

Data point: LHVVITLLREVVFTRLV [CSN12] ; protein stability index = 1.14

Data point: SIVHINSQERVQDLGSA [SIR2] ; protein stability index = 2.99

Data point: CEAAVEISKKDFVRKGG [SIR3] ; protein stability index = 3.22

Data point: GHNDWVSQVRVVPNEKA [ASC1] ; protein stability index = 2.94

Data point: VPVKLEEIKTVDPASAP [RRP6] ; protein stability index = 2.87

Data point: KSKGDVDIKGEDLHEKN [NUT1] ; protein stability index = 3.44

Data point: EDVVAISSRTFGQRAVL [RPS0A] ; protein stability index = 3.02

Data point: FPPPSVAARAEILRIHS [RPT6] ; protein stability index = 1.54

Data point: KIEGCISQVSSIHAIGS [RPB7] ; protein stability index = 2.11

Data point: RNMIIVPEMIGSVVGIY [RPS15] ; protein stability index = 1.53

Data point: LYASDYASYFPYLLETY [RPN7] ; protein stability index = 1.39

Data point: ATDISGELRDYIEDFLL [YJR042W/NUP85] ; protein stability index = 3.22

Data point: EKYEDEDEEKILDNTEN [DSN1] ; protein stability index = 3.01

Data point: KTAYSIYLSQNELTDAI [RPN1] ; protein stability index = 2.71

Data point: TKFKGGKRQLMKAVGEY [SEC65] ; protein stability index = 3.26

Data point: FEEDSDLALPPPPPPPP [PRP8] ; protein stability index = 3.27

Data point: KKVVIVKPHDEGSKSHP [RPL27A] ; protein stability index = 2.82

Data point: SVDLEKLAFGLTKLNED [TAF14] ; protein stability index = 3.6

Data point: VRNSFPLDEIPVDVDFN [REC8] ; protein stability index = 2.57

Data point: AVAVGNVEMEEDVLVNQ [RPL1A] ; protein stability index = 1.17

Data point: QLIKQSIKNNVAMCFVI [SNU114] ; protein stability index = 1.24

Data point: LSLTLNTHYHADYRLIL [SNF2] ; protein stability index = 2.75

Data point: ILLQHKEKLTVQDCRYS [POP1] ; protein stability index = 2.31

Data point: QYSTRHDAPRGLFPFES [SWI3] ; protein stability index = 3.2

Data point: QTFNFDSFENYFNQLKP [RPN12] ; protein stability index = 3.05

Data point: EITGTSCLTFFQALDSE [ITC1] ; protein stability index = 2.42

Data point: VTLDFGNIFADLLPNSF [SMC2] ; protein stability index = 3.07

Data point: KDDGAFVKFLSKKGSLE [RPL10] ; protein stability index = 3.06

Data point: LITKANKVSYYGNPTSK [RTT102] ; protein stability index = 1.97

Data point: DILQITKKPLMVKNVKP [SIR4] ; protein stability index = 2.55

Data point: MPFWKFFMKNFPFVLKV [SRB8] ; protein stability index = 2.03

Data point: FARLSRLLSLWEVFQMA [RPC82] ; protein stability index = 2.86

Data point: DSTSHNNGSSDKSLDSS [MED1] ; protein stability index = 3.08

Data point: LGHPDNYIPGNPLVTPA [COB] ; protein stability index = 2.93

Data point: LSSLILKIFQEQSLEVF [SRB8] ; protein stability index = 2.88

Data point: YKYKMRYVYAHFPINVN [RPL9A] ; protein stability index = 2.08

Data point: RFWSFMKTQRFVSNMGF [SIR4] ; protein stability index = 1.82

Data point: ATGNESQDATKVDATPE [YLR335W/NUP2] ; protein stability index = 3.04

Data point: KVTSYDITGDIRNEGSD [ISW2] ; protein stability index = 3.21

Data point: KPTSPFIDSICKLFDKI [SRB8] ; protein stability index = 1.56

Data point: DDDLFETLVLSYFSPIN [YCG1] ; protein stability index = 1.36

Data point: VDTGLQPQHPHYVSTSK [YLR018C/POM34] ; protein stability index = 2.88

Data point: ATGHRVLIFFQMTQIMD [SNF2] ; protein stability index = 2.72

Data point: SENRNNIKSSISNGNLA [YOR098C/NUP1] ; protein stability index = 2.96

Data point: NYHPNASITPYKLVNKN [RPN4] ; protein stability index = 2.59

Data point: GIKVLPETCLFVSYFGK [YML103C/NUP188] ; protein stability index = 2.44

Data point: TLDKKDSIPLRITNSFY [RPN9] ; protein stability index = 2.9

Data point: RDRTSGQKLLAIKYGYE [SRB4] ; protein stability index = 3.11

Data point: MTTFYKCVNCGHRWKEN [RPC11] ; protein stability index = 2.22

Data point: MSAVPSVQTFGKKKSAT [RPS16A] ; protein stability index = 1.26

Data point: YPEDKKTQQNEKSENGE [RPN3] ; protein stability index = 3.22

Data point: IKDTANDNDITVKENES [UBP6] ; protein stability index = 1.85

Data point: PSKKLKTEDGFVIPALP [RPC82] ; protein stability index = 2.93

Data point: LPNEAGRLEIFKIHTAK [RPT4] ; protein stability index = 2.92
